Data provenance: BigSolDB 2.1

- conditions.used: in ethanol, 298.22 K
quantity.kind: solubility (mole fraction)
Keep the answer to the number alone.

get_value(item= O=C(O)Cn1cnnn1 , readout=solubility (mole fraction)) returns 0.0891

----------
- conditions.used: in ethyl acetate, 318.16 K
quantity.kind: solubility (mole fraction)
Keep the answer to the number alone.

get_value(item= O=C(O)Cn1cnnn1 , readout=solubility (mole fraction)) returns 0.0246

----------
- conditions.used: in ethyl acetate, 293.28 K
quantity.kind: solubility (mole fraction)
Keep the answer to the number alone.

get_value(item= O=C(O)Cn1cnnn1 , readout=solubility (mole fraction)) returns 0.0138

----------
- conditions.used: in methanol, 303.22 K
quantity.kind: solubility (mole fraction)
Keep the answer to the number alone.

get_value(item= O=C(O)Cn1cnnn1 , readout=solubility (mole fraction)) returns 0.199
